assay-info: in vivo
condition-notes: mouse, in vivo, po, 1000 mg/kg, % of deaths in 24 h, female mice, 1000 mg/kg peroral
observed-property: mortality at 24 h (%)
Number in %, nothing else.

stdin: State its mortality at 24 h for this molecule: CC(C)Cc1ccc([C@H](C)C(=O)O)cc1 [S-(+)-ibuprofen]
stdout: 10

====

assay-info: in vivo
condition-notes: mouse, in vivo, po, 2000 mg/kg, % of deaths in 24 h, male mice, 2000 mg/kg peroral
observed-property: mortality at 24 h (%)
Number in %, nothing else.

> print(dat)
                                   compound  unit.abbrev  numeric.readout
1  CC(C)Cc1ccc([C@H](C)C(=O)O)cc1 [S-(+)-ibuprofen]            %                0

Consider now this further compound.
stdin: State its mortality at 24 h for this compound: CC(C)Cc1ccc([C@H](C)C(=O)NO)cc1 [S-(+)-ibuproxam]
stdout: 0

====

assay-info: in vivo
condition-notes: mouse, in vivo, po, 2000 mg/kg, animals died in 48 hours, male mice, 2000 mg/kg peroral
observed-property: mortality at 48 h (%)
Number in %, nothing else.

stdin: State its mortality at 48 h for this compound: CC(C)Cc1ccc([C@H](C)C(=O)O)cc1 [S-(+)-ibuprofen]
stdout: 30

====

The entries below come with measured mortality at 360 h values attached.
assay-info: in vivo
condition-notes: rat, po, 1000 mg/kg
Number in %, nothing else.

> print(dat)
                                   compound   observed.property  numeric.readout
1  CC(C)Cc1ccc([C@H](C)C(=O)NO)cc1 [S-(+)-ibuproxam]  mortality at 360 h               50

Consider now this further compound.
stdin: State its mortality at 360 h for this compound: CC(C)Cc1ccc([C@H](C)C(=O)O)cc1 [S-(+)-ibuprofen]
stdout: 83.3

====

assay-info: in vivo
condition-notes: mouse, in vivo, po, 2000 mg/kg, % of deaths after 15 days, female mice, 2000 mg/kg peroral
observed-property: mortality at 360 h (%)
Number in %, nothing else.

> print(dat)
                                   compound   observed.property  unit.abbrev  numeric.readout
1  CC(C)Cc1ccc([C@H](C)C(=O)NO)cc1 [S-(+)-ibuproxam]  mortality at 360 h            %                0

stdin: State its mortality at 360 h for this compound: CC(C)Cc1ccc([C@H](C)C(=O)O)cc1 [S-(+)-ibuprofen]
stdout: 10

====

assay-info: in vivo
condition-notes: rat, po, 1000 mg/kg
The entries below come with measured mortality at 24 h values attached.
Number in %, nothing else.

> print(dat)
                                   compound  observed.property  numeric.readout
1  CC(C)Cc1ccc([C@H](C)C(=O)O)cc1 [S-(+)-ibuprofen]  mortality at 24 h                0

Consider now this further compound.
stdin: State its mortality at 24 h for this compound: CC(C)Cc1ccc([C@H](C)C(=O)NO)cc1 [S-(+)-ibuproxam]
stdout: 0

====

assay-info: in vivo
condition-notes: rat, po, 2000 mg/kg
observed-property: mortality at 360 h (%)
Number in %, nothing else.

stdin: State its mortality at 360 h for this molecule: CC(C)Cc1ccc([C@H](C)C(=O)NO)cc1 [S-(+)-ibuproxam]
stdout: 50

Numbers sourced from patent US5840714A.
